# TARGET: Microphthalmia-associated transcription factor (Homo sapiens) (UniProt O75030)
# Sequence (O75030 whole entry, looked up): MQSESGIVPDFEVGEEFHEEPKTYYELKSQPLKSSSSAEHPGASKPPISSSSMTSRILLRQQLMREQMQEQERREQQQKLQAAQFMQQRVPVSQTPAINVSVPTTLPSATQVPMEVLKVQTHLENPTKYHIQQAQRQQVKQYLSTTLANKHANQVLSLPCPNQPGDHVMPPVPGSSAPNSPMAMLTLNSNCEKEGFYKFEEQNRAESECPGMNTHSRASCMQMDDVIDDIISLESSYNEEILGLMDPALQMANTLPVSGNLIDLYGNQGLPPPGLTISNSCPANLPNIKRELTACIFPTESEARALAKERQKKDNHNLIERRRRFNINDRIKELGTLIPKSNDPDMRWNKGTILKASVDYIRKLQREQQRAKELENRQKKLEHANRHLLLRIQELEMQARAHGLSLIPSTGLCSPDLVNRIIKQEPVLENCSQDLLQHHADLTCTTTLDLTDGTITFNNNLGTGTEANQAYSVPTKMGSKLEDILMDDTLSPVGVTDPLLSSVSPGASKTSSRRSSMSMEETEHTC
# TEST_NAME: MITF inhibitors, primary screen, biochemical, AlphaScreen, human (AID 1259374);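 also: 0% = vehicle wells with protein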
# EXPERIMENTAL_CONDITIONS: AlphaScreen MITF homodimerization, bead proximity signal; at 2.6 µM; stronger effect = higher value
Hit rate of the full screen: of about 650,000 compounds, about 5,900 (0.91%) were called active. The sample holds actives, similar compounds and a random draw of the others, so the mix is not that of the screen.
Kindly supply the reported inhibition values for the records listed here.
Form entry: value (%) — number only.

IN: State, in one line, measured inhibition of "O=C1N[C@H](CO)C(=O)N2CCN(Cc3cccc(F)c3)C[C@H]12"
OUT: 10.2

IN: State, in one line, measured inhibition of "c1ccc(-c2nnc3sc(-c4ccc5c(c4)OCCO5)nn23)cc1"
OUT: -0.82

IN: State, in one line, measured inhibition of Fc1cccc(CN2CCN(C3CCC(c4ccccc4)CC3)CC2)c1 (centres undefined)
OUT: 54.9

IN: State, in one line, measured inhibition of "COc1ccc(/C=C/c2cc[n+](C)cc2)c(OC)c1"
OUT: -10.4

IN: State, in one line, measured inhibition of "CCOC(=O)CSc1nc2ccc(Cl)cc2n2cnnc12"
OUT: -5.55

IN: State, in one line, measured inhibition of "O=C(Cc1csc(Nc2ccc(Cl)cn2)n1)NCc1ccccc1Cl"
OUT: 13.2

IN: State, in one line, measured inhibition of "O=C(NCc1ccc(Cl)cc1)C1CCN(c2nnnn2-c2ccccc2)CC1"
OUT: 5.24

IN: State, in one line, measured inhibition of "COc1cc(NC(=O)CSc2nnc(-c3ccoc3C)n2CC(C)C)cc(OC)c1"
OUT: 9.5

IN: State, in one line, measured inhibition of CCOc1ccc(CN2CCCC(C(=O)N(C)Cc3ccccc3)C2)cc1 (centres undefined)
OUT: 45.6

IN: State, in one line, measured inhibition of "O=C(CSc1nc(Nc2ccc(F)cc2)c2ccccc2n1)c1ccc(Cl)cc1"
OUT: 10.1

IN: State, in one line, measured inhibition of "c1ccc(CN2CCC(N=C3NN=C(c4ccc5c(c4)OCCO5)CS3)CC2)cc1"
OUT: -10.7

IN: State, in one line, measured inhibition of "COc1cccc(CN2CCC(C(=O)NC(C)(C)C)CC2)c1"
OUT: 18.9

IN: State, in one line, measured inhibition of "Cn1c(C(=O)O)c(CC(=O)NCc2ccc(F)cc2)c2ccccc21"
OUT: 63.1

IN: State, in one line, measured inhibition of "CCOC(=O)c1ccc(Nc2ncnc3c2cnn3-c2ccccc2)cc1"
OUT: 15.3

IN: State, in one line, measured inhibition of "Fc1ccc(CN2CCN(C3CCCC3)CC2)cc1"
OUT: 57.1

IN: State, in one line, measured inhibition of "Cc1ccc(NC(=O)CNCCCSc2ccccc2)cc1C"
OUT: 75.4

IN: State, in one line, measured inhibition of "Cc1ccc(NC(=O)CSCC(=O)Nc2ccccc2F)cc1C"
OUT: 4.24

IN: State, in one line, measured inhibition of "CCOc1cc(CN2CCC(C(=O)NCCc3ccccc3)CC2)ccc1O"
OUT: -1.67

IN: State, in one line, measured inhibition of "Cc1cc(NC(=O)c2ccc(N(C)C)cc2)no1"
OUT: 7.76

IN: State, in one line, measured inhibition of O=C(c1ccccc1)N1CCN(CC(O)COc2cccc(Cl)c2)CC1 (centres undefined)
OUT: -18.1

IN: State, in one line, measured inhibition of "CC(C)c1cc(Br)ccc1OCCOCCN1CCN(C)CC1"
OUT: -24.1

IN: State, in one line, measured inhibition of "COc1cccc(CN2CCN3C(=O)[C@H]4CCCN4C(=O)[C@H]3C2)c1"
OUT: -17.2

IN: State, in one line, measured inhibition of "COc1ccc(C(=O)Oc2ccc3c(c2)C(C)=CC(C)(C)N3C(=O)c2ccc(OC)cc2)cc1"
OUT: 8.97

IN: State, in one line, measured inhibition of "CCn1cc(C(=O)N[C@H](C)Cn2nnc3ccccc32)c(=O)c2ccc(C)nc21"
OUT: 0.5

IN: State, in one line, measured inhibition of "O=C(NCCc1ccc(F)cc1)c1ccc(Br)o1"
OUT: -9.44

IN: State, in one line, measured inhibition of "c1ccc(-n2cc(CN3CCOCC3)c(-c3ccc4c(c3)OCCO4)n2)cc1"
OUT: 61.7

IN: State, in one line, measured inhibition of NC(=O)C1CCCN(Cc2cccc(Cl)c2)C1 (centres undefined)
OUT: 31.1

IN: State, in one line, measured inhibition of "Clc1cccc(CN2CCN(C3CCN(Cc4ccccc4)CC3)CC2)c1"
OUT: 23.2

IN: State, in one line, measured inhibition of "O=C(CC1CCCCC1)NCc1ccc(F)cc1"
OUT: -4.27

Cited source: PubChem BioAssay AID1259374
